Record set of pKi for target or system PIK3CD (Human) (UniProt O00329).
Answers are plain numbers, as −log10 of the molar value.

Record smiles | pKi
COc1ncc(-c2cc(NC(=O)c3csc(CN4C[C@@H](C)O[C@@H](C)C4)n3)c3cn[nH]c3c2)cc1NS(C)(=O)=O | 10.00

Now, please, on to the next compound.
Reported pKi, compound O=C(Nc1cc(-c2cccc3[nH]ccc23)cc2[nH]ncc12)c1ccccn1 : ____ 7.30

* * *

Quick note: these are pIC50 numbers for system: PIK3CG (human)
Numbers only, as −log10 of the molar value.

The examples below pair each entry with its known result.
Record smiles | Tgt | pIC50
Cc1nc(C(=O)Nc2cc(-c3cccc4[nH]ncc34)cc3[nH]ncc23)cs1 | PIK3CG (human) | 5.20
O=C(Nc1cc(-c2cccc3[nH]ccc23)cc2[nH]ncc12)c1csc(CN2CCN3CCC[C@H]3C2)n1 | PIK3CG (human) | 5.00
COc1ncc(-c2cc(NC(=O)c3csc(CN4C[C@@H](C)O[C@@H](C)C4)n3)c3cn[nH]c3c2)cc1NS(C)(=O)=O | PIK3CG (human) | 6.50

Field: pIC50. Fill in for each record below.
1. Cc1cnc(-c2cc(-c3cccc4[nH]ccc34)cc3[nH]ncc23)o1
2. Cc1nc(C(=O)Nc2cc(-c3cnc(Cl)c(NS(=O)(=O)c4ccccc4)c3)cc3[nH]ncc23)cs1
3. CC(C)N1CCN(Cc2nc(C(=O)Nc3cc(-c4cccc5[nH]ccc45)cc4[nH]ncc34)cs2)CC1
4. Cc1csc(-c2cc(-c3cccc4[nH]ccc34)cc3[nH]ncc23)n1

[6.40, 7.60, 5.40, 5.60]
